assay: Cytotoxicity against human SK-BR-3 cells expressing wild type PI3Kalpha assessed as inhibition of cell proliferation measured after 72 hrs by CellTiter-Glo reagent based assay; type: toxicity
PARAMETER MEASURED: EC50 at 72 h

>>> result("Cc1cc(C(C)Nc2ccccc2C(=O)O)c2nc(N3Cc4ccc(C#N)cc4C3)n(C)c(=O)c2c1 (centres undefined)")
"> 15 µM"
>>> result("CC(Nc1ccc(F)cc1C(=O)O)c1cc(F)cc2c(=O)n(C)c(N3CCN(CC(F)(F)F)CC3)nc12 (centres undefined)")
"> 15 µM"
>>> result("Cc1cc(C(C)Nc2ccccc2C(=O)O)c2nc(N3CC[Si](C)(C)CC3)n(C)c(=O)c2c1 (centres undefined)")
"2 µM"
>>> result("CC(Nc1ccccc1C(=O)O)c1cc(C(F)(F)F)cc2c(=O)n(C)c(N3CCN(CC(F)(F)F)CC3)nc12 (centres undefined)")
"2 µM"

====

Reported values of EC50 at 72 h for individual entries
experiment: Cytotoxicity against human SK-BR-3 cells expressing wild type PI3Kalpha assessed as inhibition of cell proliferation measured after 72 hrs by CellTiter-Glo reagent based assay; type: toxicity
PARAMETER MEASURED: EC50 at 72 h (nM)

>>> numeric_readout("Cc1cc(C(C)Nc2ccc(F)cc2C(=O)O)c2nc(N3CCC(C)(C)CC3)n(C)c(=O)c2c1 (centres undefined)")
2000
>>> numeric_readout("Cc1cc(C(C)Nc2ccc(F)cc2C(=O)O)c2nc(N3CCN(CC(F)(F)F)CC3)n(C)c(=O)c2c1 (centres undefined)")
2000
>>> numeric_readout("Cc1cc(C(C)Nc2ccc(Cl)cc2C(=O)O)c2nc(N3Cc4ccc(F)cc4C3)n(C)c(=O)c2c1 (centres undefined)")
2000

====

assay: Oral bioavailability in CD-1 mouse at 10 mg/kg by LC/MS/MS analysis; assay type: ADME, organism-based; settings: in vivo
PARAMETER MEASURED: bioavailability

>>> result("Cc1cc(C(C)Nc2ccc(F)cc2C(=O)O)c2nc(N3CCC(C)(C)CC3)n(C)c(=O)c2c1 (stereo unspecified)")
"61%"
